- Test System: Microtubule-associated protein tau (Homo sapiens, UniProt P10636)
- Sequence (P10636 whole entry): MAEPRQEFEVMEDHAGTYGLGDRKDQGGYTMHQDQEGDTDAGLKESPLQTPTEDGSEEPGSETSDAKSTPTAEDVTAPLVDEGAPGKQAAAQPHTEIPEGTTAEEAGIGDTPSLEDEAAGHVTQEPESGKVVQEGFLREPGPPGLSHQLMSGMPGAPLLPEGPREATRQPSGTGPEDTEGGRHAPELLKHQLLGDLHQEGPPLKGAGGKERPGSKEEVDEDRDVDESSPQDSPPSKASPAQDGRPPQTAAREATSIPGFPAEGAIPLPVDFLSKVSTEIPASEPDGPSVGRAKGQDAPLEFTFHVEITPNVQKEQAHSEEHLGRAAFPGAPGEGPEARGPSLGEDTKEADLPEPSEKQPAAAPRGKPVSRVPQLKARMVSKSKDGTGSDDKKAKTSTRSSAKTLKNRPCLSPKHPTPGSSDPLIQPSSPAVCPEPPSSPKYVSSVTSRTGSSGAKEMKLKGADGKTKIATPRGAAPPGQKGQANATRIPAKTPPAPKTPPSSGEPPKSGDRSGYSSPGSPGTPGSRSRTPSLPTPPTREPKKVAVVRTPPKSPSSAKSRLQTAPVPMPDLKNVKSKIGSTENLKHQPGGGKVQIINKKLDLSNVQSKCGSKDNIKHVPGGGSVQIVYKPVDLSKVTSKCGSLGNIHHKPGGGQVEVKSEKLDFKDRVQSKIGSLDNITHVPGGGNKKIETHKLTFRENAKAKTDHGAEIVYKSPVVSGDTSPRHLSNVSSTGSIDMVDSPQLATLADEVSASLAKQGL
- Assay Explanation: Inhibition of recombinant human microtubule associated protein tau aggregation by Thiazin-red R displacement fluorescence assay
Measure: IC50

Chem Smiles	Measure	Result
COc1cc(/C=c2\sc3nc(-c4ccncc4C)cn3c2=O)cc(OC)c1O	IC50	8 nM
COc1cc(/C=c2\sc3nc(-c4ccncc4C)cn3c2=O)ccc1O	IC50	79 nM
